Exercise: for every item that follows, state its recorded pKd.
Molecular target: T1, human gonadotropin-releasing hormone receptor (GnRH-R), clone LC27-4 (human)
T1 chain: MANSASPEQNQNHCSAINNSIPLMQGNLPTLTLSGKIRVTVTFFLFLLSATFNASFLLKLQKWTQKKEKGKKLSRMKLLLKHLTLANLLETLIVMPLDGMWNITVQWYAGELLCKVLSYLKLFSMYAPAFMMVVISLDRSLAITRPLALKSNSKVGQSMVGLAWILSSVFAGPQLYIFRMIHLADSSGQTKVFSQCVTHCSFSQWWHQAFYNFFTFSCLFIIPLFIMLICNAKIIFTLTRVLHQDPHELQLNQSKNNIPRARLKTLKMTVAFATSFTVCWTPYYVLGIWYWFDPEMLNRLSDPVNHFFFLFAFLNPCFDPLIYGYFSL
Test: displacement of 125I-GnRH-A, membranes of COS-1 cells transfected with the human GnRH-R
Non-standard residues stand in square brackets, D forms with d. No end group written: not given here. d(pGlu) = O=C1CC[C@H](C(=O)O)N1; NMeL = CN[C@@H](CC(C)C)C(=O)O
Please express pKd as -log10 of the molar concentration.

Suppose we examine the binder [d(pGlu)][dF][dW]SY[dW]LRPG (ends and bridges not checked) [antagonist 5: [D-pGlu1,D-Phe2,D-Trp3,6]GnRH] ; what pKd value has been reported?
8.08

Suppose we examine the binder QHWSY[dA][NMeL]RP-NHEt (ends and bridges not checked; also: 125I label on the tracer form) [[D-Ala6, NαMe-Leu7, Pro9-NHEt]GnRH (GnRH-A)] ; what pKd value has been reported?
9.01
